# STUDY SYSTEM: c-kit (Homo sapiens, UniProt P10721)
# Construct: human Mo7e cells which endogenously express c-kit; endogenous in cells; host or cells: human Mo7e cells (SCF-dependent promegakaryocytic leukemia line)
# Sequence (P10721 26-976): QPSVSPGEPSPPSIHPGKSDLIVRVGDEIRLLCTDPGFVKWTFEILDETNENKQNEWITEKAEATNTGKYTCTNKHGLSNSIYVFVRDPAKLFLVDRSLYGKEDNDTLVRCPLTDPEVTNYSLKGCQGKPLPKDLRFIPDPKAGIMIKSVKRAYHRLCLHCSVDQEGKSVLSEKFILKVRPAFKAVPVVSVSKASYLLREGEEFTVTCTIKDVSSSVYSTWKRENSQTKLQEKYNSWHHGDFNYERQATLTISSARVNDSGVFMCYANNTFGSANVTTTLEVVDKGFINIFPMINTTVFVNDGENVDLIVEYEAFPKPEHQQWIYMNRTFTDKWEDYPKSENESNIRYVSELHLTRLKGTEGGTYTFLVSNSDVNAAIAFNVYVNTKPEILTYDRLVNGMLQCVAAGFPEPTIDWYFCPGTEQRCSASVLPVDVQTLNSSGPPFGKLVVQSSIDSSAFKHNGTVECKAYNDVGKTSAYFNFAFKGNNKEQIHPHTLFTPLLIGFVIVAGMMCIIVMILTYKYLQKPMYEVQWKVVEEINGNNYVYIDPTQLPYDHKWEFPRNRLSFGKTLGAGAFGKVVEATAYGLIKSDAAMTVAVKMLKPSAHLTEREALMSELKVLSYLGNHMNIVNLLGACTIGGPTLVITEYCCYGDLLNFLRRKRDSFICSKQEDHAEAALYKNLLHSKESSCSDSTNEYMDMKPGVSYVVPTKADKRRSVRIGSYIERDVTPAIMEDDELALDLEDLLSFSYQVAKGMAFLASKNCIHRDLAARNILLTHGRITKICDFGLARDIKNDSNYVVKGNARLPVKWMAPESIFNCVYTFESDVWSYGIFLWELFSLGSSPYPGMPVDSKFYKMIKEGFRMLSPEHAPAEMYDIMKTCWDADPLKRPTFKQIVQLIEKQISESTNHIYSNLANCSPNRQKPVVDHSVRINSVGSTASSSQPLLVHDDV
# EXPERIMENT: Mo7e cell proliferation assay (SCF dependent proliferation)
# Assay type: cell-based
# SETUP CONDITIONS: Table 1; human Mo7e cells stimulated with human recombinant SCF, 48 h, CellTiter Glo; 1% FBS (footnote)
REPORTED METRIC: IC50 (µM)

Example compounds with recorded IC50:
INSERT INTO measurements (compound, study_system, unit_tag, quantitative_result) VALUES
  ('Cc1nc(-c2ccc(C)c(NC(=O)c3cnc4ccc(-c5sc(C(=O)NCCO)nc5C)cn34)c2)no1 [F263]', 'c-kit (Homo sapiens, UniProt P10721)', 'µM', 0.058),
  ('Cc1ccc(-c2noc(CC(=O)OC(C)(C)C)n2)cc1NC(=O)c1cnc2ccccn12 [F27]', 'c-kit (Homo sapiens, UniProt P10721)', 'µM', 0.022);

a = Cc1ccn2c(C(=O)Nc3cc(-c4noc(CCC(C)(OP(=O)(O)O)C(F)(F)F)n4)ccc3C)cnc2c1 (stereo in doubt) [F270]
b = CCN(Cc1nc(-c2ccc(C)c(NC(=O)c3cnc4ccccn34)c2)no1)C(=O)OC(C)(C)C [F21]
Which of the two items, a and b , has the greater recorded IC50? Answer by stating the label of the chosen item.
b

====

# STUDY SYSTEM: c-kit (Homo sapiens, UniProt P10721)
# Construct: human Mo7e cells which endogenously express c-kit; endogenous in cells; host or cells: human Mo7e cells (SCF-dependent promegakaryocytic leukemia line)
# EXPERIMENT: Mo7e cell proliferation assay (SCF dependent proliferation)
# Format: cell-based
# SETUP CONDITIONS: Table 2; human Mo7e cells stimulated with human recombinant SCF, 48 h, CellTiter Glo; 1% FBS (footnote)
pIC50: −log10 of the molar value.
REPORTED METRIC: pIC50

INSERT INTO assay_data (molecule, study_system, reported_metric, quantitative_result) VALUES
  ('COC(=O)NCc1nc(-c2ccc(C)c(NC(=O)c3cnc4ccc(C)cn34)c2)no1', 'c-kit (Homo sapiens, UniProt P10721)', 'pIC50', 6.80),
  ('Cc1ccc(-c2noc(C(C)(C)NS(C)(=O)=O)n2)cc1NC(=O)c1cnc2ccccn12', 'c-kit (Homo sapiens, UniProt P10721)', 'pIC50', 6.34),
  ('CCNC(=O)Cc1nc(-c2ccc(C)c(NC(=O)c3cnc4ccccn34)c2)no1', 'c-kit (Homo sapiens, UniProt P10721)', 'pIC50', 6.50),
  ('CO[C@@H](C)C(=O)NCc1nc(-c2ccc(C)c(NC(=O)c3cnc4ccccn34)c2)no1', 'c-kit (Homo sapiens, UniProt P10721)', 'pIC50', 6.74),
  ('Cc1ccc(-c2nc(C(C)C)no2)cc1NC(=O)c1cnc2ccccn12', 'c-kit (Homo sapiens, UniProt P10721)', 'pIC50', 6.92);

1 = Cc1nc(-c2ccc(C)c(NC(=O)c3cnc4ccc(-c5c(C)nn(CC(=O)O)c5C)cn34)c2)no1
2 = Cc1ccc(-c2noc(CCCN)n2)cc1NC(=O)c1cnc2ccccn12
// task: argmin of pIC50 over [ 1 , 2 ] Answer by stating the label of the chosen item.
1
(1: 5.61, 2: 6.76)

I = Cc1ccc(-c2noc(C(F)F)n2)cc1NC(=O)c1cnc2ccccn12
II = Cc1ccc(-c2noc(C(O)C(F)(F)F)n2)cc1NC(=O)c1cnc2ccccn12 (centres unmarked)
// task: argmin of pIC50 over [ I , II ] Answer by stating the label of the chosen item.
I

1 = Cc1ccc(-c2noc([C@@H](C)N)n2)cc1NC(=O)c1cnc2ccccn12
2 = Cc1ccc(-c2noc(CNC(=O)OCCC(F)(F)F)n2)cc1NC(=O)c1cnc2ccccn12
Which of the two items, 1 and 2 , has the greater recorded pIC50? Answer by stating the label of the chosen item.
1
